B1: TRAF3IP2 (parent)
chain: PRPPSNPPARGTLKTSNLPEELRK

- Variants of: B1
- assay protocol: protein stability index of a GFP-peptide fusion (GPS, HEK-293T) (PSI 1-6); higher = more stable;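 further: lentivirally expressed fusions sorted by FACS into six bins by GFP to DsRed ratio, PSI derived from sequencing read proportions per bin multiplied by bin number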
- reported conditions: c terminus: a fixed tail appended
quantity kind: protein stability index

{"primary sequence": "PRPPSNPLARGTLKTSNLPEELRK", "reading": 4.69}
{"primary sequence": "PRFPSNPPARGTLKTSNLPEELRK", "reading": 4.13}
{"primary sequence": "PRPPSNPPARGTLKTSNLPEECRK", "reading": 5.65}
{"primary sequence": "PRPPSNPPARGTLKTSNLVEELRK", "reading": 4.09}
{"primary sequence": "PRNPSNPPARGTLKTSNLPEELRK", "reading": 4.29}
{"primary sequence": "PRPPSNPPARGTLFTSNLPEELRK", "reading": 4.84}
{"primary sequence": "PRPPSNPPARGVLKTSNLPEELRK", "reading": 4.41}
{"primary sequence": "PRPPSNPPARGTLKTSNLPEEIRK", "reading": 4.56}
{"primary sequence": "PRPPANPPARGTLKTSNLPEELRK", "reading": 4.32}
{"primary sequence": "PRPPSNPPSRGTLKTSNLPEELRK", "reading": 4.62}
{"primary sequence": "PRPPSNKPARGTLKTSNLPEELRK", "reading": 4.53}
{"primary sequence": "PRPPSNPPLRGTLKTSNLPEELRK", "reading": 4.85}
{"primary sequence": "PRPPSNPPARGTLKTSNLPEELRS", "reading": 4.7}
{"primary sequence": "PRPPSNIPARGTLKTSNLPEELRK", "reading": 4.5}
{"primary sequence": "PRPPSNPPARGTLKTSNLPWELRK", "reading": 4}
{"primary sequence": "PRPPSNPPARGTLKTINLPEELRK", "reading": 4.49}
{"primary sequence": "PRPPSNPPARGTLKTSNLHEELRK", "reading": 3.36}
{"primary sequence": "PRPPSNPPARGTLKTSNLPEERRK", "reading": 4.82}
{"primary sequence": "PRPPSKPPARGTLKTSNLPEELRK", "reading": 4.72}
{"primary sequence": "PRPPSNPPARGTLKTVNLPEELRK", "reading": 4.17}
{"primary sequence": "PRPPSNLPARGTLKTSNLPEELRK", "reading": 4.83}
{"primary sequence": "PRQPSNPPARGTLKTSNLPEELRK", "reading": 4.2}
{"primary sequence": "PRPPSNPPRRGTLKTSNLPEELRK", "reading": 4.6}
{"primary sequence": "PRPPSNPPARGTLKTSNLPEMLRK", "reading": 3.06}
{"primary sequence": "PRPPSNPPARGTLKTSNLPEELRI", "reading": 4.24}
{"primary sequence": "PRPPSNPPARGTLKTSNLPNELRK", "reading": 4.61}
{"primary sequence": "PRPPSNPPARGTLGTSNLPEELRK", "reading": 4.68}
{"primary sequence": "PRPPSNPPARGTLKTSNLIEELRK", "reading": 4}
{"primary sequence": "PRGPSNPPARGTLKTSNLPEELRK", "reading": 4.82}
{"primary sequence": "PRPPSNPPARGTSKTSNLPEELRK", "reading": 4.94}
{"primary sequence": "PRPPSNPPARGTLYTSNLPEELRK", "reading": 4.77}
{"primary sequence": "PRPPSNPPARCTLKTSNLPEELRK", "reading": 4.25}
{"primary sequence": "PRPPSNPPARGTLKTSNLPEELRM", "reading": 4.26}
{"primary sequence": "PRPMSNPPARGTLKTSNLPEELRK", "reading": 4.39}
{"primary sequence": "PRPPSNPPARGTYKTSNLPEELRK", "reading": 4.25}
{"primary sequence": "PRPPSNPPARGTLKTSNLPEELNK", "reading": 5.2}
{"primary sequence": "PRPPSNPPARATLKTSNLPEELRK", "reading": 4.73}
{"primary sequence": "PRPPSNPPARGTLKTSNLSEELRK", "reading": 4.75}
{"primary sequence": "PRPPSNPPARGTLKTCNLPEELRK", "reading": 4.19}
{"primary sequence": "PRPPSNPPARGTLKTSNLPEEQRK", "reading": 5.39}
{"primary sequence": "PRPPSNPPARGTLLTSNLPEELRK", "reading": 5.17}
{"primary sequence": "PRPPSNPPARGTLKTSNLPVELRK", "reading": 3.41}
{"primary sequence": "ERPPSNPPARGTLKTSNLPEELRK", "reading": 4.43}
{"primary sequence": "PRPPSNPPARGTLKTSNLPERLRK", "reading": 4.2}
{"primary sequence": "PVPPSNPPARGTLKTSNLPEELRK", "reading": 4.63}
{"primary sequence": "PRPPWNPPARGTLKTSNLPEELRK", "reading": 3.98}
{"primary sequence": "PRPPSNPPARGCLKTSNLPEELRK", "reading": 4.24}
{"primary sequence": "PRMPSNPPARGTLKTSNLPEELRK", "reading": 4.42}
{"primary sequence": "PRPPSNAPARGTLKTSNLPEELRK", "reading": 4.8}
{"primary sequence": "PRPPSNPPARGTLATSNLPEELRK", "reading": 5.35}
{"primary sequence": "MRPPSNPPARGTLKTSNLPEELRK", "reading": 5.07}
{"primary sequence": "PRPPSNYPARGTLKTSNLPEELRK", "reading": 4.05}
{"primary sequence": "PRPPSNPPARGTLWTSNLPEELRK", "reading": 4.58}
{"primary sequence": "YRPPSNPPARGTLKTSNLPEELRK", "reading": 4.46}
{"primary sequence": "PRPPSNPPARGTLKTSNLPEELRN", "reading": 4.87}
{"primary sequence": "PRPPSNPPARGTLKTSNLPEELCK", "reading": 4.64}
{"primary sequence": "PRPPFNPPARGTLKTSNLPEELRK", "reading": 4.45}
{"primary sequence": "PRPPSNPPARGTLKTSNLPEHLRK", "reading": 3.94}
{"primary sequence": "PRAPSNPPARGTLKTSNLPEELRK", "reading": 5.13}
{"primary sequence": "PRPPSNPPARGTLKMSNLPEELRK", "reading": 4.43}
{"primary sequence": "PRLPSNPPARGTLKTSNLPEELRK", "reading": 4.5}
{"primary sequence": "PRPPSNPPMRGTLKTSNLPEELRK", "reading": 4.68}
{"primary sequence": "PRPYSNPPARGTLKTSNLPEELRK", "reading": 4.43}
{"primary sequence": "PRPPSNPPARGTLKTSNSPEELRK", "reading": 5.62}
{"primary sequence": "PRPPSNPPARGTAKTSNLPEELRK", "reading": 4.52}
{"primary sequence": "PRPPSNPPARGTLKTSNLPEELRA", "reading": 4.86}
{"primary sequence": "PRPPSNPPARGTLCTSNLPEELRK", "reading": 4.76}
{"primary sequence": "PRPPSNPPARGTLKTSNLPEEFRK", "reading": 4.24}
{"primary sequence": "PRPPSNPAARGTLKTSNLPEELRK", "reading": 5.06}
{"primary sequence": "PRPPSNPPARGMLKTSNLPEELRK", "reading": 4.56}
{"primary sequence": "PRPPSNPPARGTCKTSNLPEELRK", "reading": 3.92}
{"primary sequence": "PRPPSNPPARGTVKTSNLPEELRK", "reading": 5.32}
{"primary sequence": "PRPPSNPPARGTLKTSNLPEELLK", "reading": 4.19}
{"primary sequence": "PRDPSNPPARGTLKTSNLPEELRK", "reading": 5.07}
{"primary sequence": "PRPPSNPPARGTLKTSNLPEEKRK", "reading": 4.97}
{"primary sequence": "PRPPSNPPARGTLKTNNLPEELRK", "reading": 4.37}
{"primary sequence": "PRPPSNPPERGTLKTSNLPEELRK", "reading": 5.06}
{"primary sequence": "PRPPSNPPARGTLKWSNLPEELRK", "reading": 3.67}
{"primary sequence": "PRPPSNPPARGTLKTSNLPEELQK", "reading": 5.23}
{"primary sequence": "PRPWSNPPARGTLKTSNLPEELRK", "reading": 4.61}
{"primary sequence": "QRPPSNPPARGTLKTSNLPEELRK", "reading": 4.74}
{"primary sequence": "PRPPSNTPARGTLKTSNLPEELRK", "reading": 4.76}
{"primary sequence": "PRPPSNPPARGTLQTSNLPEELRK", "reading": 5.21}
{"primary sequence": "PRPPSNPPARGTLKTSNFPEELRK", "reading": 4.72}
{"primary sequence": "PRPPSNPPARGTLKTSNLPEEERK", "reading": 5.61}
{"primary sequence": "PRPPSNPPARGTLKTSNLPMELRK", "reading": 4.14}
{"primary sequence": "PRPPSNPHARGTLKTSNLPEELRK", "reading": 3.56}
{"primary sequence": "PRPPSNPPARETLKTSNLPEELRK", "reading": 4.96}
{"primary sequence": "PRPPSNPPARGTLKTSNLPEELIK", "reading": 4.39}
{"primary sequence": "PRPPSNPPARGTLKTSNLPEELGK", "reading": 4.7}
{"primary sequence": "PRPPSNPPARGTLKRSNLPEELRK", "reading": 4.52}
